Source of measurements: the supplement of paper PMC10567573

B1: MYBL2 (parent)
chain: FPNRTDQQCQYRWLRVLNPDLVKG

# Variants of: B1
# PROTOCOL: protein stability index of a GFP-peptide fusion (GPS, HEK-293T) (PSI 1-6); higher = more stable;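 also: lentivirally expressed fusions sorted by FACS into six bins by GFP to DsRed ratio, PSI derived from sequencing read proportions per bin multiplied by bin number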
# EXPERIMENTAL_SETUP: c terminus: a fixed tail appended
Form field: protein stability index (one value per entry).
Give a plain numeric answer without units written out.

Examples from the recorded data:
variant_notation=Y11S recorded_number=2.11
variant_notation=L21R recorded_number=2.31
variant_notation=W13Y recorded_number=2.26

Exam item: Which protein stability index reading was recorded for the variant G24L ?
Marked response: 2.35

Exam item: Which protein stability index reading was recorded for the variant V22I ?
Marked response: 2.04

Exam item: Which protein stability index reading was recorded for the variant W13F ?
Marked response: 2.75

Exam item: Which protein stability index reading was recorded for the variant R15S ?
Marked response: 2

Exam item: Which protein stability index reading was recorded for the variant L21T ?
Marked response: 2.26

Exam item: Which protein stability index reading was recorded for the variant N18Y ?
Marked response: 2.16

Exam item: Which protein stability index reading was recorded for the variant R4I ?
Marked response: 1.56

Exam item: Which protein stability index reading was recorded for the variant R15Q ?
Marked response: 2.15
